B1: VH:VL chains; a variant is named by its letters at X, in order (parent)
chain 1: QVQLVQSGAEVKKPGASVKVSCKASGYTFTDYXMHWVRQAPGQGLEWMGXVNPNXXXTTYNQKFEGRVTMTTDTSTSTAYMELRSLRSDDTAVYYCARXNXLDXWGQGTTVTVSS
chain 2: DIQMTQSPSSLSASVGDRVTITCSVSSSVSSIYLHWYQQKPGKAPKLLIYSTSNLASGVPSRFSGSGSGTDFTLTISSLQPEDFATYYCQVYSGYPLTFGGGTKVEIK

# Variants of: B1
# protocol_summary: yeast display scFab, FACS + sequencing
measured_property: non-specific binding call

Illustrative cases are given below, each with its answer.
{"columns": ["mutation_name", "measured_property", "result"],
 "data": [
  ["DRAGDDGY", "non-specific binding call", "no binding"],
  ["VKGEAAWD", "non-specific binding call", "binds"],
  ["YRGRDDGD", "non-specific binding call", "no binding"],
  ["YRKGGAWV", "non-specific binding call", "binds"],
  ["YRARGSLA", "non-specific binding call", "binds"]
]}

The value of non-specific binding call measured for the variant "YKARGSLY" turned out to be binds

Briefly, non-specific binding call measured for "YKTRSAVA" : binds
